Please respond with reported viability at 10 µM for every item in the list.
protocol_summary: Neuroprotective activity against glutamate-induced neuronal cell death in Sprague-Dawley rat CGN cells assessed as cell viability at 10 uM preincubated for 24 hrs followed by glutamate challenge measured after 24 hrs by MTT assay (reference value: 40.4%)
Type: functional
conditions_used: read-out: Activity
Numbers only, in %.

As a guide, the following entries are already answered.
COCCC(=O)c1cc2c(cc1OC)[C@@]1(C)CC[C@H](O)C(C)(C)[C@@H]1CC2: 71.5
COc1cc2c(cc1C(=O)C(C)C)CC[C@H]1C(C)(C)[C@@H](O)CC[C@]21C: 38.8

Lab note: next compound to report on.
Name the recorded viability at 10 µM for COc1cc2c(cc1C(C)=O)CC[C@H]1C(C)(C)[C@@H](O)CC[C@]21C . 85.2
